# Tested on: P. berghei ookinete development
# conditions.used: read-out: Pb Ookinete development assay IC50; dose response confirmation
assay.endpoint: IC50 (nM)
Field format: number, assumed nM, no unit text.

COc1ccc2ncc(F)c(CCN3CC[C@H](NCc4cc(C#N)c5c(c4)OCCO5)[C@H](O)C3)c2c1 [TCMDC-136207]; 747

Entry CC1(C)N=C(N)N=C(N)N1OCCCc1ccccc1.Cl [TCMDC-131689] , IC50 reported as 2540

Memo: COc1ccc2ncc(C#N)c(CCN3CCC(NCc4ccc5c(n4)NC(=O)CS5)CC3)c2n1.Cl [TCMDC-135188] , reported IC50: 768

Consider CC(=O)c1ccc2nc[nH]c(=O)c2c1 [TCMDC-138172] . Its measured IC50 is 503

Form: compound = CCn1c(CN2CCC(C)CC2)nc2cc(NC(=O)c3cccs3)ccc21 [TCMDC-124730] ; IC50 = 350

Sample Cc1nc(/N=C(\N)NC(=O)NC2CCCCC2)nc2ccccc12 [TCMDC-123808] ; IC50 observed: 1080

COc1ccc2nccc([C@@H](O)CN3CCC(NCc4cc5c(F)ccc(F)c5[nH]4)CC3)c2n1.CS(=O)(=O)O [TCMDC-140749] yielded IC50 of 3270

---

Some compounds, each annotated with its measured Is compound selective in assay? Pb ODA active?.
# Tested on: P. berghei ookinete development
# conditions.used: 1: YES; 0: NO

In the examples that follow, each entry is paired with its recorded Is compound selective in assay? Pb ODA active?.
COc1ccc(Cl)cc1NC(=O)CN(C)C(=O)c1cnn(-c2ccccc2)n1 [TCMDC-125457]; 1 (1: YES)
CC(=O)c1ccc(NC(=O)Nc2ccc(N(C)c3ccnc(Nc4cccc(CS(C)(=O)=O)c4)n3)cc2)cc1 [TCMDC-138736]; 1 (1: YES)
Cc1cc(Nc2ncc(C#N)c(Nc3ccccc3C(N)=O)n2)ccc1N1CCN(C)CC1.Cl [TCMDC-134115]; 1 (1: YES)
C=CC(C)C1OC(=O)c2cc(OC)cc(OC)c21 (centres unmarked) [TCMDC-138676]; 0 (0: NO)
CCN(CC)CCCNc1c2ccccc2nc2ccccc12.Cl [TCMDC-125517]; 1 (1: YES)
Cc1[nH]c(C)c(-c2ccc(OCc3cc(C(F)(F)F)cc(C(F)(F)F)c3)nc2)c(=O)c1Br [TCMDC-135815]; 0 (0: NO)
CCN(CC)c1ccccc1CNC(=O)c1cc(Cl)c(N)cc1OC [TCMDC-131416]; 1 (1: YES)

Form field Is compound selective in assay? Pb ODA active?, entry CCC1=C[C@@H]2CN(C1)Cc1c([nH]c3ccccc13)[C@@](C(=O)OC)(c1cc3c(cc1OC)N(C)[C@H]1[C@@](O)(C(=O)OC)[C@H](O)[C@]4(CC)C=CCN5CC[C@]31[C@@H]54)C2.O=S(=O)(O)O [TCMDC-137769] : 1 (1: YES)

---

Catalogue of molecules with associated % inhibition, Replicate B
# Tested on: P. berghei ookinete development
# conditions.used: primary screen at 1 μM, replicate B
Please reply with the bare figure in % and do not write the unit itself.

Here are 8 molecules together with their reported answers.
COc1ccc2nccc([C@@H](O)CN3CCC(NCCOc4cc(C(F)(F)F)ccc4F)CC3)c2c1.O=C(O)C(=O)O; 46.33
Cc1nc2c(c([O-])c1Cl)-c1ccc(Oc3cccc(C(F)(F)F)c3)cc1C2=O.[Na+]; 74.80
NC(=O)c1ccccc1Nc1nc(Nc2cc[nH]n2)ncc1Cl; 61.96
Cc1[nH]c(C)c(-c2ccc(S(=O)(=O)c3ccc(Cl)cc3)cc2)c(=O)c1Br; 112.52
COc1cccc(Cn2ccc3c4c(N)nc(N)nc4ccc32)c1; 68.96
Br.CC1(C)NC(N)=NC(=N)N1OCCCOc1cccc(Cl)c1; 53.67
COc1ccc2ncc(Cl)c(NCC3(O)CCC(NCc4ccc5c(n4)NC(=O)CS5)CC3)c2n1.Cl (stereo not shown); 100.49
COc1ccc(NC2=C(c3ccccc3)C(=O)c3ccccc32)cn1; 57.32

Known value: P. berghei ookinete development % inhibition, Replicate B of the molecule COc1ccc(CCc2ccc(-c3c(C)[nH]c(C)c(Cl)c3=O)cc2)cc1 equals 104.99

The reported P. berghei ookinete development % inhibition, Replicate B of CCCCN(C)CC#Cc1ccc(-c2ccc3[nH]c(C)c(Br)c(=O)c3c2)cn1 is 66.49

// % inhibition, Replicate B (P. berghei ookinete development) for Cc1nc(C)c(-c2ccc(Oc3ccc(OC(F)(F)F)cc3)cc2)c(OC(=O)c2ccccc2)c1Cl = 103.63

The reported P. berghei ookinete development % inhibition, Replicate B of O=c1c2ccccc2[nH]c2cc(Cl)ccc12 is 69.34

So the reported % inhibition, Replicate B for CC(CO)(CO)NCc1cc2ccc3ccsc3c2c2ccccc12.CS(=O)(=O)O , on P. berghei ookinete development, turned out to be 68.87

Br.CCCc1cc(C)ccc1OCCCON1C(N)=NC(N)=NC1(C)C tested on P. berghei ookinete development gave % inhibition, Replicate B: 59.20

Record for O=C(c1cc(-c2ccco2)[nH]n1)N1CCN(S(=O)(=O)c2ccc(Cl)cc2)CC1 under target or system P. berghei ookinete development: % inhibition, Replicate B reported as 51.92

# CCC(C)(C)n1c(C)cc2c3c(N)nc(N)nc3ccc21 with P. berghei ookinete development: % inhibition, Replicate B is 73.34
